- Test system: UO-31 renal
- Protocol Details: NCI-60 one-dose screen, 48 h
- Stated Conditions: 10 µM unless noted
This is part of a sample that, as a whole, favours compounds with a hit. Of some 83,000 tested, about 20% had one in any assay. The source made the active and inactive calls. How the source made its calls: active means growth percent below 10; inactive means the rest.
Bench note: report the call from T for active, F for inactive

Molecule: Cc1[nH]c2ccc(F)cc2c1CCNC(=O)C1CCN(C(=O)c2ccccc2)C1 (centres undefined)
Answer Label: F

Give the logged outcome of this assay for the following molecule: CN1CCN(Cc2ccc(NC(=O)c3cncc(C#Cc4cnc(N)c5ccncc45)c3)cc2C(F)(F)F)CC1
T

Give the logged outcome of this assay for the following molecule: COc1ccc(/C=C\c2cc(OC)c(OC)c(OC)c2)cc1OC(=O)c1cccc(Cn2cc(CCOC(=O)c3cccc(Cn4nnc5c4C(=O)c4ccccc4C5=O)c3)nn2)c1
F

Give the logged outcome of this assay for the following molecule: O=S(=O)(CC(O)(c1ccccc1)c1ccccc1)CC(O)(c1ccccc1)c1ccccc1
F

Give the logged outcome of this assay for the following molecule: C=C(C)[C@@H]1C[C@H](O)Cc2cc(F)ccc2N1
F

Give the logged outcome of this assay for the following molecule: Cc1ccc2[nH]c(=O)c3c(c2c1)Oc1ncn2nc(-c4ccco4)nc2c1C3c1ccc(Cl)cc1 (centres undefined)
F

Give the logged outcome of this assay for the following molecule: C/C=C(\C)C(C(=O)NC1CCCCC1)N(C(=O)C1CCc2cc(F)ccc2O1)c1ccc(Cl)cc1 (centres undefined)
F

Give the logged outcome of this assay for the following molecule: COc1ccc(C(=O)N2NC(=O)/C(=C/c3cn(-c4ccccc4)nc3-c3ccccc3)N=C2c2ccccc2)cc1
F

Give the logged outcome of this assay for the following molecule: O=c1c2sc3ncccc3c2nnn1-c1ccccc1
F
